- system: T1, human CD3 protein (human, UniProt P07766 23-126; P04234 22-105)
- T1 construct: ELISA coating protein; also called Human CD3D & CD3E Heterodimer Protein
- T1 sequence (P07766 23-126 limits assumed, chain 1 of 2): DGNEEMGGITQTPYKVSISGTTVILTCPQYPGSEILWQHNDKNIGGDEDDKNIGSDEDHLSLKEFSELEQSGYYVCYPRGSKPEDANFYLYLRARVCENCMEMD
- T1 sequence (P04234 22-105 limits assumed, chain 2 of 2): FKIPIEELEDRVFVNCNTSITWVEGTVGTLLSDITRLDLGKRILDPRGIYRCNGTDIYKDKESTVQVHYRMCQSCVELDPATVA
- assay-info: ELISA, plate-coated CD3;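 also: binding to plate-immobilized human CD3 protein, bound antibody detected with peroxidase-labelled anti-human IgG and TMB, read as absorbance at 450 nm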
I'd be grateful if you could share measured EC50 for these entries.

Hu192A7B9-11 (antibody, V domains shown, humanized mAb) VH: EVQLQESGPGLVKPSETLSLTCTVSGFSISSYNVHWVRQPPGKGLEWMGRMRYNGDTSYNSALKSRLTISRDTSKNQVSLKLSSVTAADTAVYYCTRGPRGGYYSALFDYWGQGTMVTVSS VL: DIQMTQSPSSLSASVGDRVTITCKASQNINRYLNWYQQKPGKAPKLLISIANSLQTGVPSRFSGSGSGTDFTLTISSLQPEDFATYYCLQHNSWYTFGQGTKLEIK : 7.95 ng/mL

Here is another binder to look at.
Measured EC50 of Hu192A7B9-19 (antibody, V domains shown, humanized mAb) VH: EVQLQESGPGLVKPSETLSLTCTVSGGSISSYNVHWIRQPPGKGLEWIGRMRYNGDTSYNSALKSRVTISVDTSKNQFSLKLSSVTAADTAVYYCARGPRGGYYSALFDYWGQGTMVTVSS VL: DIQMTQSPSSLSASVGDRVTITCKASQNINRYLNWYQQKPGKAPKVLISIANSLQTGIPSRFSGSGSGTDFTLTISSLQPEDFATYFCLQHNSWYTFGQGTKLEIK : 4.98 ng/mL

Data credit: patent US20240417469A1
